Target: mTOR (Homo sapiens, UniProt P42345)
Construct: FLAG; made in house
Sequence (P42345 1362-2549): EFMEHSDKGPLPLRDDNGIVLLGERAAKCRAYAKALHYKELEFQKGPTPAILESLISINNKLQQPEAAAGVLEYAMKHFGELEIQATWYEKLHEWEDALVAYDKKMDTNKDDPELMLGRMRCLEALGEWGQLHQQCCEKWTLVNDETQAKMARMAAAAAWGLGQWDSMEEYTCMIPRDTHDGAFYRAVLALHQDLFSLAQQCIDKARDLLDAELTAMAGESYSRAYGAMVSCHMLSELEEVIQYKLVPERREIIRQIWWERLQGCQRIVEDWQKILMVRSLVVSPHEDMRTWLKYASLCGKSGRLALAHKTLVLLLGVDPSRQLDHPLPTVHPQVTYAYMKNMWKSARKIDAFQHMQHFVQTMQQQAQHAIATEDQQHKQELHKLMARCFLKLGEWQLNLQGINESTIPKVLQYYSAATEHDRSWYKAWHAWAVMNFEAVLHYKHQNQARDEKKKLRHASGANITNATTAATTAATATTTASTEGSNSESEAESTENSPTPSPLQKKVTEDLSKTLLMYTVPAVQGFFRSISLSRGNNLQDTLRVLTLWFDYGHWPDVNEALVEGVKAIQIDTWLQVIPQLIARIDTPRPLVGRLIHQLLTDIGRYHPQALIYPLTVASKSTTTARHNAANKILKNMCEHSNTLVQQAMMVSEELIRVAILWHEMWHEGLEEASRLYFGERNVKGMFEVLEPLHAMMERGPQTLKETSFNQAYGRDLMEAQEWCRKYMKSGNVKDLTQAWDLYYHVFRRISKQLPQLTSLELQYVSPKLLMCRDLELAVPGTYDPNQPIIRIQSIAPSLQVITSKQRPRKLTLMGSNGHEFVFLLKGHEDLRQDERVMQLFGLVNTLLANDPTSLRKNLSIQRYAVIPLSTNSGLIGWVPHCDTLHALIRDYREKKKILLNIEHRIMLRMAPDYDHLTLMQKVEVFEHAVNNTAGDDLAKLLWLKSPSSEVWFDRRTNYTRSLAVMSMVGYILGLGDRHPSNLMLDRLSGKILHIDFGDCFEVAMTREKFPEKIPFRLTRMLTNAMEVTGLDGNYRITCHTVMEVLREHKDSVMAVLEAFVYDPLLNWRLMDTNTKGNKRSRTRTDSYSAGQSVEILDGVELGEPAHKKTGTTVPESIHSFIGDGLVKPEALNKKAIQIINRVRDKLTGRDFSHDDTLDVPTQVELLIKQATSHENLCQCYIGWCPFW
Experiment: In Vitro mTOR Kinase Assay (Echo), Test (a)(ii)
Type: biochemical
Conditions: table of enzyme assay Test (a)(ii); read-out: Test (a)(ii) IC50
pIC50: −log10 of the molar value.
endpoint: pIC50

> print(dat)
                                    compound  result
 1  CN(C)C(=O)C1(c2cc(N3CCOCC3)nc(-c3ccc(NC(=O)NC4CC4)cc3)n2)CC1    8.03
 2  C[C@H]1COCCN1c1cc(C2(S(=O)(=O)c3ccccc3)CC2)nc(-c2ccc(NC(=O)NCC(=O)N(C)C)cc2)n1 [Example 36dq]    7.61
 3  C[C@H]1COCCN1c1cc(C2(S(=O)(=O)c3ccccc3)CCCC2)nc(-c2ccc(NC(=O)NCCC#N)cc2)n1 [Example 36bz]    7.84
 4  C[C@H]1COCCN1c1cc(C2(S(=O)(=O)c3ccc(Cl)cc3)CC2)nc(-c2ccc(NC(=O)Nc3ccccn3)cc2)n1 [Example 27b]    8.37
 5  Cc1csc(S(=O)(=O)C2(c3cc(N4CCOCC4)nc(-c4ccc(NC(=O)Nc5cnn(C)c5)cc4)n3)CC2)n1 [Example 42b]    8.27
 6  C[C@H]1COCCN1c1cc(C2(S(C)(=O)=O)CCOCC2)nc(-c2ccc(NC(=O)NCCN(C)C)cc2)n1 [Example 23b]    6.71
 7  CN(C)CCNC(=O)Nc1ccc(-c2nc(N3CCOCC3)cc(C3(S(=O)(=O)C4CC4)CC3)n2)cc1 [Example 13f]    6.41
 8  C[C@H]1COCCN1c1cc(C2(S(=O)(=O)CCCO)CCC2)nc(-c2ccc(NC(=S)NCCCO)cc2)n1 [Example 99i]    7.23
 9  C[C@H]1COCCN1c1cc(C2(S(=O)(=O)c3ccc(Cl)cc3)CCOCC2)nc(-c2ccc(NC(=O)NC3CC3)cc2)n1    8.29
10  C[C@H]1COCCN1c1cc(C2(S(=O)(=O)c3ccc(C#N)cc3Cl)CC2)nc(-c2ccc(NC(=O)NCC(F)F)cc2)n1 [Example 85h]    7.37
11  C[C@H]1COCCN1c1cc(C2(S(=O)(=O)c3c(F)cccc3F)CC2)nc(-c2ccc(NC(=O)NCC(F)F)cc2)n1 [Example 86e]    8.65
12  Cc1ccccc1S(=O)(=O)C1(c2cc(N3CCOC[C@@H]3C)nc(-c3ccc(NC(=O)NCCF)cc3)n2)CC1 [Example 54c]    8.34
13  C[C@H]1COCCN1c1cc(C2(S(=O)(=O)c3ccc(C(N)=O)cc3Cl)CC2)nc(-c2ccc(NC(=O)NC3CC3)cc2)n1 [Example 85b]    8.28
14  Cc1ccccc1S(=O)(=O)C1(c2cc(N3CCOC[C@@H]3C)nc(-c3ccc(NC(=O)NCC(F)F)cc3)n2)CC1 [Example 54d]    8.05

====

Listing of entries alongside the reported IC50.
Biological target: mTOR (Homo sapiens, UniProt P42345)
Construct: FLAG; made in house
Experiment: In Vitro mTOR Kinase Assay (Echo), Test (a)(ii)
Assay type: biochemical
Conditions: table of enzyme assay Test (a)(ii); read-out: Test (a)(ii) IC50
endpoint: IC50 (nM)

> print(dat)
                                   compound  endpoint  result
1  Cc1csc(S(=O)(=O)C2(c3cc(N4CCOC[C@@H]4C)nc(-c4ccc(NC(=O)NC5CC5)cc4)n3)CC2)n1      IC50    1.55
2  C[C@H]1COCCN1c1cc(C2(S(=O)(=O)c3cccc(F)c3)CC2)nc(-c2ccc(NC(=O)NCC(F)F)cc2)n1 [Example 53d]      IC50     3.1
3  C[C@H]1COCCN1c1cc(C2(S(=O)(=O)c3ccc(F)c(Cl)c3)CC2)nc(-c2ccc(NC(=O)Nc3cnn(C)c3)cc2)n1 [Example 95g]      IC50    16.4

====

Catalogue of log10 of IC50 readings, one per entry.
Molecular target: mTOR (Homo sapiens, UniProt P42345)
Construct: FLAG; made in house
Assay: In Vitro mTOR Kinase Assay (Echo), Test (a)(ii)
Format: biochemical
Details: read-out: mTOR Kinase Assay (Echo)
endpoint: log10 of IC50 (log10 of the value in nM)

> print(dat)
                                   molecule                   experimentalsystem  result
1  CNC(=O)Nc1ccc(-c2nc(N3CCOC[C@@H]3C)cc(C3(S(=O)(=O)c4ccc(F)cc4)CC3)n2)cc1  mTOR (Homo sapiens, UniProt P42345)   -0.24
2  C[C@H]1COCCN1c1cc(C2(S(C)(=O)=O)CCC2)nc(-c2ccc(NC(=O)Nc3ccccn3)cc2)n1  mTOR (Homo sapiens, UniProt P42345)   -0.61
3  CS(=O)(=O)C1(c2cc(N3CCOCC3)nc(-c3ccc(NC(=O)NC4CC4)cc3)n2)CCC1 [Example 12p]  mTOR (Homo sapiens, UniProt P42345)    0.15
4  CCS(=O)(=O)C1(c2cc(N3CCOC[C@@H]3C)nc(-c3ccc(NC(=O)NCC(C)C)cc3)n2)CC1 [Example 11i]  mTOR (Homo sapiens, UniProt P42345)    1.47
5  C[C@H]1COCCN1c1cc(C2(S(C)(=O)=O)CC2)nc(-c2ccc(NC(=O)Nc3ccccc3)cc2)n1  mTOR (Homo sapiens, UniProt P42345)   -0.57
6  C[C@H]1COCCN1c1cc(C2(S(=O)(=O)c3ccccc3C(F)(F)F)CC2)nc(-c2ccc(NC(=O)NCCO)cc2)n1 [Example 10g]  mTOR (Homo sapiens, UniProt P42345)    0.19
7  C[C@H]1COCCN1c1cc(C2(S(C)(=O)=O)CC2)nc(-c2ccc(NC(=O)NCCN(C)C)cc2)n1  mTOR (Homo sapiens, UniProt P42345)    2.45

====

Biological target: mTOR (Homo sapiens, UniProt P42345)
Construct: FLAG; made in house
Assay: In Vitro mTOR Kinase Assay (Echo), Test (a)(ii)
Assay type: biochemical
Settings: table of enzyme assay Test (a)(ii); read-out: Test (a)(ii) IC50
endpoint: IC50 (nM)

> print(dat)
                                   compound   u  result
1  Cc1nn(C(F)F)c(C)c1S(=O)(=O)C1(c2cc(N3CCOC[C@@H]3C)nc(-c3ccc(NC(=O)NCCO)cc3)n2)CC1 [Example 75c]  nM    33.9
2  CCNC(=O)Nc1ccc(-c2nc(N3CCOCC3CO)cc(C3(S(=O)(=O)c4ccccc4)CC3)n2)cc1 (stereo not shown)  nM    18.2
3  C[C@H]1COCCN1c1cc(C2(S(=O)(=O)c3nccs3)CC2)nc(-c2ccc(NC(=O)NCc3ncc[nH]3)cc2)n1 [Example 66b]  nM    24.6
4  CNC(=O)Nc1ccc(-c2nc(N3CCOC[C@@H]3C)cc(C3(S(=O)(=O)c4nc(C)cs4)CC3)n2)cc1 [Example 25i]  nM       1
5  C[C@H]1COCCN1c1cc(C2(S(=O)(=O)CCCO)CCC2)nc(-c2ccc(NC(=S)NC3CC3)cc2)n1 [Example 99b]  nM    31.6
6  C[C@H]1COCCN1c1cc(C2(S(=O)(=O)CCO)CC2)nc(-c2ccc(NC(=O)NCCC#N)cc2)n1 [Example 16g]  nM    17.6
7  C[C@H]1COCCN1c1cc(C2(S(=O)(=O)CCCO)CCC2)nc(-c2ccc(NC(=O)NCCF)cc2)n1 [Example 43n]  nM    11.9

====

Target: mTOR (Homo sapiens)
Construct: FLAG; made in house
Assay: In Vitro mTOR Kinase Assay (Echo), Test (a)(ii)
Type: biochemical
Conditions: table of enzyme assay Test (a)(ii); read-out: Test (a)(ii) IC50
pIC50: −log10 of the molar value.
Quick rule: pIC50 of at least 8 means label 1, below that means label 0.

> print(dat)
                                   molecule  classification
1  CN(C)CCNC(=O)Nc1ccc(-c2nc(N3CCOCC3)cc(C3(S(C)(=O)=O)CCC3)n2)cc1 [Example 12s]         label 0
2  C[C@H]1COCCN1c1cc(C2(S(=O)(=O)c3ccc(Cl)cc3)CC2)nc(-c2ccc(NC(=O)Nc3cnn(C)c3)cc2)n1 [Example 27m]         label 1
3  CNC(=O)Nc1ccc(-c2nc(N3CCOC[C@@H]3C)cc(C3(S(=O)(=O)c4ccccc4)CCC3)n2)cc1 [Example 36bu]         label 1
4  C[C@H]1COCCN1c1cc(C2(S(=O)(=O)c3cc(F)ccc3F)CC2)nc(-c2ccc(NC(=O)NC3CC3)cc2)n1 [Example 60a]         label 0
5  C[C@H]1COCCN1c1cc(C2(S(=O)(=O)CCCO)CCC2)nc(-c2ccc(NC(=S)NC(C)(C)CO)cc2)n1 [Example 99d]         label 0
6  C[C@H]1COCCN1c1cc(C2(S(=O)(=O)CCCO)CC2)nc(-c2ccc(NC(=O)NC3(CO)CC3)cc2)n1 [Example 36a]         label 0
